- target-entity: ZBTB7A (Homo sapiens, UniProt O95365)
- Sequence (O95365 whole entry): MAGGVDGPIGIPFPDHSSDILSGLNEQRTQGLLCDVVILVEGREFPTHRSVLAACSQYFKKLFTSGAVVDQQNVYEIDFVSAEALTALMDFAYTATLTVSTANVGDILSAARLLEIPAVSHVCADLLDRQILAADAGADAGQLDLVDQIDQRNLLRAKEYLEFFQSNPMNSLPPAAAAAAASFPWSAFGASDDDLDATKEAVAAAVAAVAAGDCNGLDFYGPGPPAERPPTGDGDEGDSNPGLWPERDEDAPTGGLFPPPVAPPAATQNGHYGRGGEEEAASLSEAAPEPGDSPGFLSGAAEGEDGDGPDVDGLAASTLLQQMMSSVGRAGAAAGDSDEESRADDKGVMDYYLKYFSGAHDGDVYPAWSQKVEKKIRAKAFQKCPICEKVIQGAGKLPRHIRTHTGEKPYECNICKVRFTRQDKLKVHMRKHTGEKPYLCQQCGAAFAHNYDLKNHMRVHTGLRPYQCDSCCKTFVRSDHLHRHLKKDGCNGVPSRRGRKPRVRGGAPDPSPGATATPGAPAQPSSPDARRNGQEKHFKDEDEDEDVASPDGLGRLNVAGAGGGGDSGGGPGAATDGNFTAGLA
- test-summary: competition; 150 mM NaCl, 50 mM Tris pH 8, 0.25% NP-40, 1 mM TCEP; 4 C, 2 h; 100 ug HeLa nuclear lysate; free competitor against 200 nM immobilised SP/KLF wild-type
- run-conditions: protein: extract
measured-endpoint: IC50 (nM)
Just the number in nM, nothing appended.

Ask: // query IC50 value for entry SP/KLF wild-type (dsDNA) DNA 1: GAGAGCCCCGCCCCCTGGCT DNA 2: AGCCAGGGGGCGGGGCTCTC
Result: 263
